tested target: UniProt:P33261
Sequence (P33261 whole entry): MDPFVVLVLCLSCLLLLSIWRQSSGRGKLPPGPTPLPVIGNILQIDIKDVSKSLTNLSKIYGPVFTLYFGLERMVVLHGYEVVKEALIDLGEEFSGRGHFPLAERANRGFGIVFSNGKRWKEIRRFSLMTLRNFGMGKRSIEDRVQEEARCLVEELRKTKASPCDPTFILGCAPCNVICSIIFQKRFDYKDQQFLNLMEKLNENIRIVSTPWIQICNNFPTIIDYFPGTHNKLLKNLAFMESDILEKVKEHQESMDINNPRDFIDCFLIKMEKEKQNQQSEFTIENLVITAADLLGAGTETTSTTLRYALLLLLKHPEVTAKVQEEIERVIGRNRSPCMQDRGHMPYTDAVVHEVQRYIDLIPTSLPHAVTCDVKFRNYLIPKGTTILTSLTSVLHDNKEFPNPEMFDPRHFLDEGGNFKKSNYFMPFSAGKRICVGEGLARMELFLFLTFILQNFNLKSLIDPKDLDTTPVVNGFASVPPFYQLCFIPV
reported endpoint: IC50 (µM)

>>> observed_value("NC(=O)C[S+]([O-])C(c1ccccc1)c1ccccc1 (stereo unspecified)")
11

---

remaining at 2 h: recorded values
assay remarks: Metabolic stability in human liver S9 fraction assessed as compound remaining after 2 hrs
Format: ADME, subcellular
condition notes: read-out: Stability
reported endpoint: remaining at 2 h (%)

>>> observed_value("NC(=O)C[S+]([O-])C(c1ccccc1)c1ccccc1 (configuration not stated)")
77
>>> observed_value("NC(=O)C[S+]([O-])Cc1ccccc1-c1ccc(Cl)cc1 (racemic)")
94

---

tested target: CYP3A4 (Homo sapiens)
Sequence (P08684 whole entry): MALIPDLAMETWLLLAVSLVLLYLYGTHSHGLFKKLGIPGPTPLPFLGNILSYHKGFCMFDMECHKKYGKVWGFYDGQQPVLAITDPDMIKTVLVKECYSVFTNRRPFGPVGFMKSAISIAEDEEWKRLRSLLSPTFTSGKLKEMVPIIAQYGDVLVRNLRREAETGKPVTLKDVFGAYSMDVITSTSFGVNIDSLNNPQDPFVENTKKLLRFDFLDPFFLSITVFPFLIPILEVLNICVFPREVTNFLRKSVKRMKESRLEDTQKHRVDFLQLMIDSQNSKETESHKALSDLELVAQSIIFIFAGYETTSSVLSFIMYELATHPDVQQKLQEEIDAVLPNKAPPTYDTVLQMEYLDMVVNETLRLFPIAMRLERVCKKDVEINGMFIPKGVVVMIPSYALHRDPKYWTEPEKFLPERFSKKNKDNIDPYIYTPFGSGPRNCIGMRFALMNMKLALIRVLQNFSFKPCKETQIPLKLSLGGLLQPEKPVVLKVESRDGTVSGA
assay remarks: Inhibition of CYP3A4 at 10 uM
Format: ADME
inhibition at 10 µM: recorded values
reported endpoint: inhibition at 10 µM

>>> observed_value("NC(=O)C[S+]([O-])C(c1ccccc1)c1ccccc1 (configuration not stated)")
"< 10%"
>>> observed_value("NC(=O)C[S+]([O-])Cc1ccccc1-c1ccc(Cl)cc1 (racemic)")
"< 10%"

---

solubility: recorded values
assay remarks: Solubility of the compound in water at pH 7.4
Type: physicochemical
reported endpoint: solubility

>>> observed_value("NC(=O)C[S+]([O-])C(c1ccccc1)c1ccccc1 (configuration not stated) [MODAFINIL]")
"> 100 µg/mL"
>>> observed_value("NC(=O)C[S+]([O-])Cc1ccccc1-c1ccc(Cl)cc1 (racemic)")
"> 100 µg/mL"

---

tested target: Sodium-dependent serotonin transporter (Rattus norvegicus, UniProt P31652)
Sequence (P31652 whole entry): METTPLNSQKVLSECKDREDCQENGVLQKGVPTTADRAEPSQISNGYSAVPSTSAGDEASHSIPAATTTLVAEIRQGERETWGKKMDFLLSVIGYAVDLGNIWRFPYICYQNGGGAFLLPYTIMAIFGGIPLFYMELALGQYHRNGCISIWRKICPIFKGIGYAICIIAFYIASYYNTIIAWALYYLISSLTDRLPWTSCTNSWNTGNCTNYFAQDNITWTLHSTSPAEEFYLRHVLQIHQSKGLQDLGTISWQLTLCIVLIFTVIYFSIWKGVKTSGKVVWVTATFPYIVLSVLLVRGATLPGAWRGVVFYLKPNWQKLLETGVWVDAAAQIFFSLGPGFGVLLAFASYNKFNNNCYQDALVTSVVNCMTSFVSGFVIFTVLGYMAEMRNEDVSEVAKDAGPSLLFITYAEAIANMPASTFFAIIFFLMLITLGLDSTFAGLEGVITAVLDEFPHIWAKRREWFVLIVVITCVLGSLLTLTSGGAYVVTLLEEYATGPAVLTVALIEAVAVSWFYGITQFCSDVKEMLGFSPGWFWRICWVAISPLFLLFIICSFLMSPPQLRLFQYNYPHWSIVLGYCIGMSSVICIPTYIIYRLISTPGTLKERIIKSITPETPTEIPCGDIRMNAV
assay remarks: Inhibition of rat SERT-mediated serotonin reuptake
reported endpoint: IC50

>>> observed_value("NC(=O)C[S+]([O-])Cc1ccccc1-c1ccc(Cl)cc1 (racemic)")
"> 300 µM"

---

tested target: UniProt P23977
Sequence (P23977 whole entry): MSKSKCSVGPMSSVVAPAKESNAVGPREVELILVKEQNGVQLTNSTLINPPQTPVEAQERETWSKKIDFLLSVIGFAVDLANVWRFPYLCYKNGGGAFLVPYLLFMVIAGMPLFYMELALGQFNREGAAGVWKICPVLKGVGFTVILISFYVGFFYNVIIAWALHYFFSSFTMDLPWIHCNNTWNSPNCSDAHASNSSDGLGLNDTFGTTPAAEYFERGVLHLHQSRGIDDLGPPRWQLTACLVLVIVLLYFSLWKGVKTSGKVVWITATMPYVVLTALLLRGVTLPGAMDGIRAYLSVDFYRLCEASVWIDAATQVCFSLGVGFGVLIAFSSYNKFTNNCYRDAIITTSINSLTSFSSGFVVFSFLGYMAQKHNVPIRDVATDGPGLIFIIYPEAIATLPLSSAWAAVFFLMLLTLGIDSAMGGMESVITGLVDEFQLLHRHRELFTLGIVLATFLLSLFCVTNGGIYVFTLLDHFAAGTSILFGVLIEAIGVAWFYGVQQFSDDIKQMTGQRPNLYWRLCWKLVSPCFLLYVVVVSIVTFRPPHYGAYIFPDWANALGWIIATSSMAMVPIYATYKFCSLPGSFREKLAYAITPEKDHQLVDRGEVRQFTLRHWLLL
assay remarks: Inhibition of rat DAT-mediated dopamine reuptake
reported endpoint: IC50 (µM)

>>> observed_value("NC(=O)C[S+]([O-])Cc1ccccc1-c1ccc(Cl)cc1 (racemic)")
0.83
